target: Transforming growth factor beta-1 proprotein/Mothers against decapentaplegic homolog 3 (Mus musculus, UniProt P04202+Q8BUN5); experiment: Inhibition of TGF beta1/Smad3 signaling in mouse NIH/3T3 cells harboring CAGA promoter incubated for 18 hrs in presence of TGF-beta1 by luciferase reporter gene assay
Sequence (P04202 279-390 limits assumed): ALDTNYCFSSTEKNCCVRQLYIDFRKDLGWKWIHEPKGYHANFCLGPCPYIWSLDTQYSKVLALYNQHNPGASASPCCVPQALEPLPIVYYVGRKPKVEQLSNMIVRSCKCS
Sequence (Q8BUN5 2-425 limits assumed): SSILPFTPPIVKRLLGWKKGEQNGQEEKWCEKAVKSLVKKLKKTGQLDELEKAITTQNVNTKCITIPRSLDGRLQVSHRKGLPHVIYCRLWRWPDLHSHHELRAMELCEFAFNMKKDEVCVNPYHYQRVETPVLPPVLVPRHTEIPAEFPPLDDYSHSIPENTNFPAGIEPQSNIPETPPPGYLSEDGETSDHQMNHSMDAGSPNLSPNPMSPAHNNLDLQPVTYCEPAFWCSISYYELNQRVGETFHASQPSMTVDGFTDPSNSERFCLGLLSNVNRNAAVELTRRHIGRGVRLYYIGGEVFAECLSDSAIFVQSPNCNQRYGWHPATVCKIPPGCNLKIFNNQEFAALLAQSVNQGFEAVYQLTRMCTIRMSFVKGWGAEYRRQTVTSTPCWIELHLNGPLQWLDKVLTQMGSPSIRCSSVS
property_label: pIC50
Lab note: report pIC50 as minus log10 of the concentration in molar units, number only.

Known pIC50 results, listed for orientation:
Cc1cccc(-c2[nH]c(C(C)(C)C)nc2-c2ccc3nccnc3c2)n1	7.15
CC1(C)C[C@H]2[C@H]1CC[C@@]1(C)C[C@]2(O)CC[C@@H]1O	5.44
Cc1ccc(=O)n(-c2ccccc2)c1	5.84

Q) // pIC50 lookup, key: COc1ccc(C2CC(=O)c3c(O)cc(O)c(C)c3O2)cc1 (centres undefined)
A) 6.42
